Origin of values: the Immune Epitope Database (IEDB)

Target: HLA-A*68:01
Assay: IEDB peptide-MHC binding, purified MHC/competitive/radioactivity; filed as Kd, often an IC50 or EC50 that approximates it; bounds were set here for any values at or beyond the usual limits of such assays
Details: source organism: Vaccinia virus WR
QUANTITY NAME: pKd
Just so you know, pKd here is -log10 of the concentration in molar units; reply with that number alone.

// query // lookup pKd for PLIDIIRKR
// result 6.01

// query Requested field: pKd. Item: DTSEKYSKGY
// result 6.27

// query Would you mind telling me what pKd value was observed for VISKIYTLIY ?
// result 5.75

// query Suppose we examine the sequence DSMDVLAEK ; what pKd value has been reported?
// result 9.91

---

Biological target: HLA-A*11:01
Assay: IEDB peptide-MHC binding, purified MHC/competitive/radioactivity; filed as Kd, often an IC50 or EC50 that approximates it; bounds were set here for any values at or beyond the usual limits of such assays
Conditions: source organism: Vaccinia virus WR
QUANTITY NAME: Kd (µM)
# unit: µM | format: bare number

// query Query the reported Kd for HLA-A*11:01; item: SLTILDDNLY
// result 3.07

// query Field: Kd (HLA-A*11:01). Entry: MMKLGISPSK
// result 0.0271

// query Find Kd (HLA-A*11:01) for the entry AFLLRHYYNK
// result 0.225

---

Biological target: HLA-A*02:06
Assay: IEDB peptide-MHC binding, purified MHC/competitive/radioactivity; filed as Kd, often an IC50 or EC50 that approximates it; bounds were set here for any values at or beyond the usual limits of such assays
Conditions: source organism: Vaccinia virus WR
QUANTITY NAME: Kd

// query Give its Kd value. Item: GIKNLKSLL
// result ≥ 61.2 µM

// query GET /values?readout=Kd&item= CTEETKRNIA
// result ≥ 69.8 µM

// query Entry EMKYALINL has what Kd?
// result ≥ 77.1 µM

// query What measured Kd goes with GTKGKLYIAL ?
// result ≥ 37.2 µM

---

Target: HLA-A*29:02
Experiment: IEDB peptide-MHC binding, purified MHC/competitive/radioactivity; filed as Kd, often an IC50 or EC50 that approximates it; bounds were set here for any values at or beyond the usual limits of such assays
Conditions: source organism: SARS coronavirus Tor2
QUANTITY NAME: pKd
On this scale, pKd is minus log10 of a concentration expressed in M (mol/L).

// query // lookup pKd for TSSGDATTAY
// result 7.01

// query Which value of pKd has been reported for IFFASFYYIW in the records?
// result 7.50

// query Suppose we examine the sequence TYHPNCINCL ; what pKd value has been reported?
// result 5.25

// query Given the sequence DYAEISFML , what is its reported pKd?
// result 7.00

// query Look up pKd: GFELTSMKY
// result 6.88

---

Target: HLA-A*23:01
Assay: IEDB peptide-MHC binding, purified MHC/competitive/radioactivity; filed as Kd, often an IC50 or EC50 that approximates it; bounds were set here for any values at or beyond the usual limits of such assays
Settings: source organism: SARS coronavirus Tor2
Please respond with reported Kd for every item in the list.

// query Given the sequence DEEGNLLDSY , what is its reported Kd?
// result ≥ 58.1 µM

// query Consider the sequence FYFTNDVSF and give its measured Kd.
// result 1.49 µM

// query Could you tell me which Kd is on file for EWSVATFYLF ?
// result 3.28e-05 µM

// query What measured Kd goes with DYAEISFML ?
// result ≥ 90.7 µM

// query Suppose we examine the sequence YIESKRGVY ; what Kd value has been reported?
// result ≥ 77.8 µM

// query Which Kd is listed for TSSGDATTAY ?
// result ≥ 70 µM

// query Item TYHPNCINCL has what recorded Kd?
// result 1.15 µM

// query Requested read-out: Kd. Entry: LLEIKDKEQY
// result ≥ 70 µM

// query Fill in: Kd of HHANEYRQY is ___
// result ≥ 77.8 µM
